# Target Under Test: UniProtKB Q13557
# Sequence (Q13557 whole entry, looked up): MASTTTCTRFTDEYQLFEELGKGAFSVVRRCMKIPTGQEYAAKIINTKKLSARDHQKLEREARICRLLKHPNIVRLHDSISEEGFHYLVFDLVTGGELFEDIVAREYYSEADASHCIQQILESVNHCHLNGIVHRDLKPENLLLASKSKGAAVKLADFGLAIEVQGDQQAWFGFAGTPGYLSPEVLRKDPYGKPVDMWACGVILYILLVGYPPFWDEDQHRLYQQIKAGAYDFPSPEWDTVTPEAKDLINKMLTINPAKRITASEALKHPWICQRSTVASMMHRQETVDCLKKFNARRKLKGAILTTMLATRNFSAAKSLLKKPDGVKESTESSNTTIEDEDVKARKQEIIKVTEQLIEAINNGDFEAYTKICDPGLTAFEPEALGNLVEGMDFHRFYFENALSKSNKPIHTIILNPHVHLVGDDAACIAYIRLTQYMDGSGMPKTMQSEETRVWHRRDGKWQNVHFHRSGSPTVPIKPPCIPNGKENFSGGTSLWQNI
# Assay Name: KINOMEscan competition binding
# Settings: compound 10.0 µM
Endpoint Label: kinase still bound, per cent of control (%)
Write the answer as a number in %, unit excluded.

Reference set (6 entries):
Specify the recorded kinase still bound, per cent of control for CC(=O)c1c(C)c2cnc(Nc3ccc(N4CCNCC4)cn3)nc2n(C2CCCC2)c1=O , system: UniProtKB Q13557. 6.8

Please report the measured kinase still bound, per cent of control for N#C/C(=C1/Nc2ccccc2S1)c1ccnc(NCCc2cccnc2)n1 tested on UniProtKB Q13557. 64

# return kinase still bound, per cent of control for CCN1CCN(Cc2ccc(NC(=O)c3ccc(C)c(/C=C/c4cnc5[nH]ccc5c4OC)c3)cc2C(F)(F)F)CC1 , test system: UniProtKB Q13557 100

Please look at CC1=C(C(=O)Nc2cc3cn[nH]c3cc2F)C(c2ccc(C(F)(F)F)cc2)CC(=O)N1 (centres undefined) and tell me its recorded kinase still bound, per cent of control on UniProtKB Q13557. 100

Enter kinase still bound, per cent of control (test system UniProtKB Q13557) for CCN(CCO)CCCOc1ccc2c(Nc3cc(CC(=O)Nc4cccc(F)c4)[nH]n3)ncnc2c1 93

Under UniProtKB Q13557, report kinase still bound, per cent of control for O=c1[nH]c2ccccc2n1C1CCN(Cc2ccc(-c3nc4cc5[nH]cnc5cc4nc3-c3ccccc3)cc2)CC1 100

***
Give kinase still bound, per cent of control for COc1ccc(N(C(=O)Oc2cc(C(=O)Nc3cccc(C(F)(F)F)c3)ccc2C)c2ccnc(Nc3ccc(N4CCN(C)CC4)cc3)n2)c(OC)c1 tested on UniProtKB Q13557. 100

Quote kinase still bound, per cent of control with test system UniProtKB Q13557 for CCCS(=O)(=O)Nc1ccc(F)c(C(=O)c2c[nH]c3ncc(Cl)cc23)c1F 99

Report value: kinase still bound, per cent of control, system: UniProtKB Q13557, compound: N#Cc1cc(-c2ccnc(Nc3ccc(-n4cnc(-c5cccnc5)n4)cc3)n2)cc(N2CCOCC2)c1 24
